// data source = patent US20250091992A1

# SUBJECT_OF_TEST: human recombinant PDE-4B1 (Homo sapiens, UniProt Q07343)
# Sequence (Q07343 whole entry): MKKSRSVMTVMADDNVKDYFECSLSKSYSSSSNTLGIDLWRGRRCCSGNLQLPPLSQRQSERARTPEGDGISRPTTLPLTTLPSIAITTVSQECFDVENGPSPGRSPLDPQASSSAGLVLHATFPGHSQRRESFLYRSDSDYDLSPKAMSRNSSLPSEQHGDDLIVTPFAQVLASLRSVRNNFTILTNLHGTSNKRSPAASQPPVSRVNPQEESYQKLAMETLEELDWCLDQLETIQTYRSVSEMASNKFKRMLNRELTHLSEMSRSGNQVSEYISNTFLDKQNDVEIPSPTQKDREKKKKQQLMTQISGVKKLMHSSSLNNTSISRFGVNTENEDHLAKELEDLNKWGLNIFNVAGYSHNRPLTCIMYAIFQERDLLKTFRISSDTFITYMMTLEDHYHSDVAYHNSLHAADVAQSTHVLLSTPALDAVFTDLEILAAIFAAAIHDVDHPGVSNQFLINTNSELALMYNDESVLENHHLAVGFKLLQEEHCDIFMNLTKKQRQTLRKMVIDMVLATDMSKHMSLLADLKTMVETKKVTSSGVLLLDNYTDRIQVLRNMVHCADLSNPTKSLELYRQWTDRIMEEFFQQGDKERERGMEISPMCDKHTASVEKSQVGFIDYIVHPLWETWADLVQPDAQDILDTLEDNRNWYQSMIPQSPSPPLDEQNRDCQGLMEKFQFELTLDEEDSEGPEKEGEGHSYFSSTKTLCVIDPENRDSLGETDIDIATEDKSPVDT
# TEST_DETAILS: PDE4-B1 assay (Compounds of Formula I), SPA
# Format: biochemical
# CONDITIONS: 30 μM; relative to Ro 20-1724
Recorded inhibition at 30 µM values for a group of molecules are listed next.
Enter your answer as a number in %; do not include the unit.

In the examples that follow, each entry is paired with its recorded inhibition at 30 µM.
MOLECULE	inhibition at 30 µM (%)
CCCCOc1cc([C@@]23CCC(=O)C[C@@H]2N(C)CC3)ccc1OCC [Compound 20]	83
[2H]C([2H])([2H])Oc1cc([C@@]23CCC(=O)C[C@@H]2N(C)CC3)ccc1OC [Compound 5]	88

Which inhibition at 30 µM is listed for CCCCOc1cc([C@@]23CCC(=O)C[C@@H]2N(C)CC3)ccc1OC(C)C [Compound 30] ?
24

If you can, please state the reported inhibition at 30 µM value of COc1cc([C@@]23CCC(=O)C[C@@H]2N(C)CC3)ccc1OC(C)C [Compound 19] .
1

What value of inhibition at 30 µM has been reported for the following molecule? COc1ccc([C@@]23CCC(=O)C[C@@H]2N(C)CC3)cc1OC1CCCCC1 [Compound 14]
94
